Target: T1, human GPRC5D (human, UniProt Q9NZD1 1-345)
T1 construct: whole, on cells; also called hGPRC5D; G-protein coupled receptor family C group 5 member D
T1 sequence (Q9NZD1 whole entry): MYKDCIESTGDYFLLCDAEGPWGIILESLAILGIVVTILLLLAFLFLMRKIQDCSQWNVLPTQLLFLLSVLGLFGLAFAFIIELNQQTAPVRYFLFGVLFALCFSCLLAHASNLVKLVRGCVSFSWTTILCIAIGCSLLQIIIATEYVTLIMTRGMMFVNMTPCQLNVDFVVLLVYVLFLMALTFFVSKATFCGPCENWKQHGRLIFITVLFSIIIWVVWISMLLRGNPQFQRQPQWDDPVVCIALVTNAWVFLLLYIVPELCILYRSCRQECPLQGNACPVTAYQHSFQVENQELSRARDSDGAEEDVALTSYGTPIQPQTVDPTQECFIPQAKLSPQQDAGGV
Assay: FACS, OPM-2 cells
Attribute measured: % Positive (%)

>  <Binder>
90G6H3 (antibody, V domains shown, Mouse monoclonal antibody from hybridoma subclone) VH: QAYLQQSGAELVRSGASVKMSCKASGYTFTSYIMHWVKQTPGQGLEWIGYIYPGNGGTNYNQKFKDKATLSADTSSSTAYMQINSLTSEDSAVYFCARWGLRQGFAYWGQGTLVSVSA VL: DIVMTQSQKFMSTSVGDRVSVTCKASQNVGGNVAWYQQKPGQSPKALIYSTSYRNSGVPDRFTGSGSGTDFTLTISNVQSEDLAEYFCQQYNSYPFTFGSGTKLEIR

>  <Endpoint value>
97.3

$$$$
>  <Binder>
15D6G2 (antibody, V domains shown, Mouse monoclonal antibody from hybridoma subclone) VH: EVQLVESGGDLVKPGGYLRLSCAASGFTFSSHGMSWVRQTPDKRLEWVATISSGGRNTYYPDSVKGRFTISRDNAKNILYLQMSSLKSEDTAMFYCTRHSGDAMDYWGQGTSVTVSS VL: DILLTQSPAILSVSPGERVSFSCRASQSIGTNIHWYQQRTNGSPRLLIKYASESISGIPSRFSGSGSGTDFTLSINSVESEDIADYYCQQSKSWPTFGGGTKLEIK

>  <Endpoint value>
99.4

$$$$
>  <Binder>
12G12C2 (antibody, V domains shown, Mouse monoclonal antibody from hybridoma subclone) VH: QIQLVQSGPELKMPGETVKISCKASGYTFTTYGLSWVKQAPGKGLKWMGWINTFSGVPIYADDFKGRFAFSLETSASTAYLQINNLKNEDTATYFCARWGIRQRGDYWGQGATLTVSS VL: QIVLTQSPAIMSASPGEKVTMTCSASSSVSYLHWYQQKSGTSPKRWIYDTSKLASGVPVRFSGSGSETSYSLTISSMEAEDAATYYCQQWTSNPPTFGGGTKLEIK

>  <Endpoint value>
98.4

$$$$
>  <Binder>
96C9E7 (antibody, V domains shown, Mouse monoclonal antibody from hybridoma subclone) VH: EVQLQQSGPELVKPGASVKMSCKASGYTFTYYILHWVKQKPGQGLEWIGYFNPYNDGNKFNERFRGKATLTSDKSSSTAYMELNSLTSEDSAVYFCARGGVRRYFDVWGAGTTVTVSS VL: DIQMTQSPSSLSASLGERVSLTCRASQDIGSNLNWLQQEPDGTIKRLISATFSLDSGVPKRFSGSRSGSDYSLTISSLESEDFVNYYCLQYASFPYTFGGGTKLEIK

>  <Endpoint value>
99.9

$$$$
>  <Binder>
98A3A8 (antibody, V domains shown, Mouse monoclonal antibody from hybridoma subclone) VH: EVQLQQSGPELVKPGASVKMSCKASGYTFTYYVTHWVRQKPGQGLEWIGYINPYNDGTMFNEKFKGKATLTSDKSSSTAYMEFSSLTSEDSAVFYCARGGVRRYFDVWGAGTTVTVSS VL: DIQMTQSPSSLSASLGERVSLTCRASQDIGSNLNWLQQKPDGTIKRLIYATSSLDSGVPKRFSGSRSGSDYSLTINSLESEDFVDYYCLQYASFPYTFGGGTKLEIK

>  <Endpoint value>
98.7

$$$$
>  <Binder>
87A3G8 (antibody, V domains shown, Mouse monoclonal antibody from hybridoma subclone) VH: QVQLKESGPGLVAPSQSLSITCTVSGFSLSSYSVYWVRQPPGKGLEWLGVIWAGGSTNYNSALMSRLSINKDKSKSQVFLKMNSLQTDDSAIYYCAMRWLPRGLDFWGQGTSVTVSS VL: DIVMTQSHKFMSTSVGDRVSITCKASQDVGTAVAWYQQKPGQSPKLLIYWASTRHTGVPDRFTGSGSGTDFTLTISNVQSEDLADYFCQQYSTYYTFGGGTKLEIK

>  <Endpoint value>
92.7

$$$$
>  <Binder>
20C4E1 (antibody, V domains shown, Mouse monoclonal antibody from hybridoma subclone) VH: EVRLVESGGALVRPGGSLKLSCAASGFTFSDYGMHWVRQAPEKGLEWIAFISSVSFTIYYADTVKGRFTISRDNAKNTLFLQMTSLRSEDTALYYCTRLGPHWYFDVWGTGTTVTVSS VL: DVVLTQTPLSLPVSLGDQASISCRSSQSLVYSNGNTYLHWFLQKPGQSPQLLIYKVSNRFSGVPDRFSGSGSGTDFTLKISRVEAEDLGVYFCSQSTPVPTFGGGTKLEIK

>  <Endpoint value>
99.5

$$$$
>  <Binder>
116F1G6 (antibody, V domains shown, Mouse monoclonal antibody from hybridoma subclone) VH: EVQLQHSGPELVKPGASVKMSCKASGYTFTTYVMHWVKQKPGQGLEWIGYINPYNDGTKYNEKFKGKATLTSDKSSSTAYMELSSLTSEDSAVYYCARGGVRRYFDVWGAGTTVTVSS VL: DIQMTQSPSSLSASLGERVSLTCRASQDIGSNLNWLQQEPNGTIKRLIYATFTLDSGVPKRFSGSRSGSDYSLTISSLESEDFVDYYCLQYASFPYTFGGGTKLEIK

>  <Endpoint value>
98.4

$$$$
>  <Binder>
26E2H6 (antibody, V domains shown, Mouse monoclonal antibody from hybridoma subclone) VH: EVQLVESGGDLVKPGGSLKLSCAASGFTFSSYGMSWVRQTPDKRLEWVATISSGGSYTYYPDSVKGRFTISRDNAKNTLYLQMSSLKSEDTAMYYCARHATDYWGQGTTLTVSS VL: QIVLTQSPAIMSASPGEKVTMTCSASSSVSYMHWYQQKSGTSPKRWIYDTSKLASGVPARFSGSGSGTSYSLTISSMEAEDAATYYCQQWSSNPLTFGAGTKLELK

>  <Endpoint value>
97.9

$$$$
>  <Binder>
108C4C12 (antibody, V domains shown, Mouse monoclonal antibody from hybridoma subclone) VH: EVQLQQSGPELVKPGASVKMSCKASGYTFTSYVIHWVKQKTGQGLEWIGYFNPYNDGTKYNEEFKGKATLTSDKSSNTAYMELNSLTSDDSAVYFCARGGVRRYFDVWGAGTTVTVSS VL: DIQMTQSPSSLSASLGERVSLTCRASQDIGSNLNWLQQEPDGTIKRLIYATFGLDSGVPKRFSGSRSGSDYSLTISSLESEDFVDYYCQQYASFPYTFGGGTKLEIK

>  <Endpoint value>
98.3

$$$$
